Below, each entry is listed with its recorded TGI.
Tested on: HS 578T breast
Assay: NCI tumour cell line growth inhibition, 48 h
Where a SMILES comes first, the peptide text is derived from it. The star is where a group is joined. Bn = c1ccc(C*)cc1

compound	valueObserved
Clc1cc(Cl)cc(Nc2ccc3cc(OCCCN4CCOCC4)ccc3n2)c1	5.43 µM
COc1ccccc1N1CCN(CCCNC(=O)c2cc(Cl)c(N)c(Cl)c2)CC1	> 100 µM
CCCOC(=O)NC(C)C(=O)NC(CCC(=O)NC(CCCC(N)C(=O)O)C(=O)NC(C)C(=O)O)C(=O)O (stereo not drawn)	40.5 µM
O=C1CCc2ccc3c(c21)CC1(Cc2ccccc2C1)C3	> 100 µM
COC(=O)C(CC(C)C)NC(=O)C(N)Cc1ccc(OCc2ccccc2)cc1 (stereo not drawn) (H-Tyr(Bn)-Leu-OMe; configuration not given here)	> 10 µM

Query: Please report TGI for the following compound: Cc1c(C#N)c(N)n(C2OCC(O)C(O)C2O)c(=S)c1C#N (stereo not drawn)
Response: > 100 µM

Query: Please report TGI for the following compound: C[C@H]1CCC/C=C/[C@@H]2C[C@H](O)C[C@H]2[C@H](O)[C@@H](SCC(O)CO)CC(=O)O1 (stereo partly drawn)
Response: > 100 µM

Query: Please report TGI for the following compound: O=C(O)C12CC3(C(=O)O)CC(C(=O)O)(CC(C(=O)O)(C1)C3=O)C2=O
Response: > 100 µM
